Readings of IC50 for the listed compounds
Assay: Inhibition of HIV-1 reverse transcriptase associated RNA dependent DNA polymerase activity incubated for 30 mins by multilabel counter plate reader method
Design: species or system Human immunodeficiency virus 1
Express your answer in µM, writing the number without its unit.

# example entries with known answers
Cc1c(O)c([N+](=O)[O-])cc2cc(C(=O)Nc3ccc(O)c(C(=O)O)c3)c(=O)oc12 : 6.7
COC(=O)c1cc(NC(=O)c2cc3cc([N+](=O)[O-])c(O)c(O)c3oc2=O)ccc1O : 6

IC50 in this record for COc1cc(OC)cc(OC(=O)c2ccc(C(F)(F)F)nc2Nc2cc(Cl)ccc2C)c1 : 16.1

----------
Target: Human immunodeficiency virus type 1 reverse transcriptase (Human immunodeficiency virus 1, UniProt Q72547)
Experiment: Inhibition of HIV-1 reverse transcriptase associated RNase H using 5-GTTTTCTTTTCCCCCCTGAC-3 Fluorescein/5CAAAAGAAAAGGGGGGACUG-3-Dabcyl as substrate incubated for 1 hr
readout.label: IC50
Lab note: write values as number then unit, every time.

IC50 in this record for O=C(N/N=C/c1ccc(O)cc1O)c1cc(O)c(O)c(O)c1 : 1700 nM

----------
Experiment: in vitro
Conditions: human, TZM-bl cells
Description: Cytotoxicity against human TZM-bl cells assessed as reduction in cell viability at 20 uM incubated for 3 days by XTT assay
readout.label: CC50 at 72 h

CC50 at 72 h in this record for CC1=C[C@H](c2c(O)ccc([C@@H]3CC(=O)c4c(O)cc(O)cc4O3)c2O)[C@@H](C(=O)c2ccc(O)cc2O)[C@H](c2ccc(O)cc2O)C1 : > 20 µM

----------
Test: Inhibition of wild type HIV-1 RNA dependent DNA polymerase activity incubated for 30 mins by multilabel counter plate reader method
Parameters: species or system Human immunodeficiency virus 1
Readings of IC50 for the listed compounds
Express your answer in µM, writing the number without its unit.

N#Cc1ccc(-c2c[nH]/c(=N\N=C3/C(=O)Nc4ccccc43)s2)cc1 : 9.8

IC50 in this record for Nc1nn(C(=O)c2ccccc2)c(N)c1C(=S)Nc1ccc(Cl)cc1 : 17

----------
Experiment: Cytotoxicity against human MT4 cells assessed as reduction in cell viability by MTT assay
Format: toxicity, cell-based
readout.label: CC50

CC50 in this record for Nc1ccc(S(=O)(=O)N2CCN(C(=O)c3cc(O)c(O)c(O)c3)CC2)cc1 : > 19.9 µM

----------
System: Human immunodeficiency virus 1
Assay: Antiviral activity against wild type HIV-1 IIIB infected in human MT2 cells assessed as protection against virus-induced cytopathicity incubated for 5 days by MTT assay
Format: functional, organism-based
Conditions: Human immunodeficiency virus 1, IIIB, MT2, 120 h
readout.label: pIC50
As a rule, pIC50 stands for the negative log10 of the concentration, concentration in M.

Note to self: pIC50 of Nc1nn(C(=O)c2ccccc2)c(N)c1C(=S)Nc1ccc(Cl)cc1 with Human immunodeficiency virus 1 was 4.60

----------
Target: UniProt Q7ZJM1
Assay: Inhibition of recombinant HIV-1 His-tagged LEDGF-dependent integrase preincubated for 1 hr followed by compound addition and measured after 90 mins by HTRF method
readout.label: IC50 (µM)
Express your answer in µM, writing the number without its unit.

Note to self: IC50 of O=C(N/N=C/c1ccc(O)cc1O)c1cc(O)c(O)c(O)c1 with UniProt Q7ZJM1 was 16

----------
Target: Human immunodeficiency virus type 1 integrase (Human immunodeficiency virus 1)
Sequence (Q7ZJM1 whole entry): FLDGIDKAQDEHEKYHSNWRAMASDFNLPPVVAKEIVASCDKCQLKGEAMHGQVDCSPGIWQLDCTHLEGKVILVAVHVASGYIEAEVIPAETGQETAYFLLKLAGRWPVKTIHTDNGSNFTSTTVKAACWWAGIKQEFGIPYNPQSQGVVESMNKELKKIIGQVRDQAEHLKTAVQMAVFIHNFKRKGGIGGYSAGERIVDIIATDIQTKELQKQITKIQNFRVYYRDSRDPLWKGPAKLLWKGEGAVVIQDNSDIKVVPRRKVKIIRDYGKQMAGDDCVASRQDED
Test: Inhibition of HIV-1 integrase strand transfer activity
readout.label: IC50

IC50 in this record for Cc1c(O)c([N+](=O)[O-])cc2cc(C(=O)Nc3ccc(O)c(C(=O)O)c3)c(=O)oc12 : 5 µM

----------
Biological target: Human immunodeficiency virus type 1 reverse transcriptase (Human immunodeficiency virus 1)
Experiment: Inhibition of HIV-1 reverse transcriptase RNase H activity expressed in Escherichia coli M15 using 5-GTTTTCTTTTCCCCCCTGAC-3 Fluorescein/5CAAAAGAAAAGGGGGGACUG-3-Dabcyl RNA/DNA template-primer as substrate incubated for 1 hr by multilabel counter plate reader method
readout.label: IC50 (µM)
Express your answer in µM, writing the number without its unit.

IC50 in this record for COc1cc(OC)cc(OC(=O)c2ccc(C(F)(F)F)nc2Nc2cc(Cl)ccc2C)c1 : 14

----------
Molecular target: Human immunodeficiency virus type 1 reverse transcriptase (Human immunodeficiency virus 1, UniProt Q72547)
Assay: Inhibition of N-terminal 6-his-tagged HIV-1 reverse transcriptase RNase H (427 to 560 residues) transformed in Escherichia coli […] (DE3) at pH 8.0 incubated for 4 hrs
readout.label: IC50 (nM)
Express your answer in nM, writing the number without its unit.

IC50 in this record for O=C(O)Cc1cc(=O)oc2c(O)c(O)ccc12 : 1100

----------
Biological target: Human immunodeficiency virus type 1 reverse transcriptase (Human immunodeficiency virus 1, UniProt Q72547)
Experiment: Inhibition of recombinant HIV-1 reverse transcriptase […] RNase H expressed in Escherichia coli M15 using 5-GTTTTCTTTTCCCCCCTGAC-3 Fluorescein/5CAAAAGAAAAGGGGGGACUG-3-Dabcyl RNA/DNA template-primer as substrate incubated for 1 hr by multilabel counter plate reader method
readout.label: pIC50
As a rule, pIC50 stands for the negative log10 of the concentration, concentration in M.

pIC50 in this record for N#Cc1ccc(-c2c[nH]/c(=N\N=C3/C(=O)Nc4ccccc43)s2)cc1 : 5.89
